Kindly state Binding Score for each of the entries shown.
targetDesc: T1, Soluble CD28-Ig (extracellular domain of human CD28 fused to the Fc portion of human IgG1) (human, UniProt P10747 19-152, biotin-conjugated (NHS-biotin) in the FACS binding assays)
T1 construct: extracellular domain; bought from R&D Systems; also called sCD28-Ig; CD28-Ig Fc; not shown: Fc portion of human IgG1
protocolDetails: competitive FACS on transfected cells, biotin-sCD28-Ig with FITC-sCTLA-4-Ig; grade 0-2 of CD28/CTLA-4 ratio vs WT hB7-1
I'd appreciate a reply containing only the number, no unit.

// Round 2 CD28A4-5* (ligand) ITPKSVTKRVKETVMLSCDYNTSTEELTSLRIYWQKDSKMVLAILPGKVQVWPEYKNRTITDMNDNPRIVILALRLSDSGTYTCVIQKPVLKGAYKLEHLTSVRLMIRADFPVPTINDLGNPSPNIRRLICSTSGGFPRPHLYWLENGEELNATNTTLSQDPETKLYMISSELDFNVTNNHSIVCLIKYGELSVSQIFPWSKPKQEPPIDQLPFWVIIPVSGALVLTAVVLYCLACRHVARWKRTRRNEETVGTERLSPIYLGSAQSSG : Binding Score value = 1

// Round 2 CD28G1-9 (ligand) ITPKSVTKRVKETVMLSCDYNTSTEELTSLRIYWQKDSKMVLAILPGKVQVWPEYKNRTITDMNDNPRIVILALRLSDSGTYTCVIQKPVLKGAYKLEHLTSVRLMIRADFPVPSITDIGHPAPNVKRIRCSASGGFPEPRLAWMEDGEELNAVNTTVDQDLDTELYSVSSELDFNVTNNHSIVCLIKYGELSVSQIFPWSKPKQEPPIDQLPFWVIIPVSGALVLTAVVLYCLACRHVARWKRTRRNEETVGTERLSPIYLGSAQSSG : Binding Score value = 1

Taken from patent US20100261660A1.
